Each entry below carries its recorded inhibition at 16 µM.
tested on: spleen lymphocytes induced by Con A; test: Detection of cell proliferation inhibition: Con A-induced spleen lymphocyte proliferation (CCK-8); format: cell-based; details: Mus musculus, concentration 16 μM, read-out: Inhibitory rate (%) on the proliferation of spleen lymphocytes induced by Con A
Express it in %; write the number only.

Note to self: inhibition at 16 µM recorded for CCCCCCCCCCCCC/C=C/[C@@H](O)C(=O)N[C@@H](CO[C@@H]1O[C@H](CO)[C@@H](O)[C@H](O)[C@H]1O)[C@H](O)/C=C/CC/C=C(\C)CCCCCCCCC was 150

Just so you know, measured inhibition at 16 µM for CCCCCCCCCCC/C=C/[C@@H](O)C(=O)N[C@@H](CO[C@@H]1O[C@H](CO)[C@@H](O)[C@H](O)[C@H]1O)[C@H](O)/C=C/CC/C=C(\C)CCCCCCCCC came out at 100

For this molecule ( CCCCCCCCCCCCCCCC(=O)N[C@@H](CO[C@@H]1O[C@H](CO)[C@@H](O)[C@H](O)[C@H]1O)[C@H](O)/C=C/CC/C=C(\C)CCCCCCCCC ), measured inhibition at 16 µM is 102

Next molecule, inhibition at 16 µM to be filled in.
Given item CCCCCCCCC/C=C/CC/C=C/[C@@H](O)[C@H](CO[C@@H]1O[C@H](CO)[C@@H](O)[C@H](O)[C@H]1O)NC(=O)[C@H](O)/C=C/CCCCCCCCCCCC , the value recorded as its inhibition at 16 µM is 52

----------
System: spleen lymphocytes induced by Con A
Assay: Detection of cell proliferation inhibition: Con A-induced spleen lymphocyte proliferation (CCK-8)
Format: cell-based
Conditions: Mus musculus, concentration 2 μM, read-out: Inhibitory rate (%) on the proliferation of spleen lymphocytes induced by Con A
Description: 3.2.1 Cell acquisition: BABL/C male mice ere sacrificed after eyeball extraction and bloodletting, soaked in 75% ethanol for 10 mint, and the spleen was aseptically removed in an ultra-clean workbench, and placed in a petri dish filled with PBS. […] 3.2.4 Detection of cell proliferation inhibition: the prepared cell suspension was added to the 96-well plate. […] The absorbance (A) value of each well was detected at 450 nm by a microplate reader. […]
RECORDED METRIC: inhibition at 2 µM
Please give the number followed by its unit.

Noted for CCCCCCCCCCCCCCCC(=O)N[C@@H](CO[C@@H]1O[C@H](CO)[C@@H](O)[C@H](O)[C@H]1O)[C@H](O)/C=C/CC/C=C(\C)CCCCCCCCC : its inhibition at 2 µM reads 72.2%

Continuing:
Entry CCCCCCCCCCC/C=C/[C@@H](O)C(=O)N[C@@H](CO[C@@H]1O[C@H](CO)[C@@H](O)[C@H](O)[C@H]1O)[C@H](O)/C=C/CC/C=C(\C)CCCCCCCCC , inhibition at 2 µM reported as 43.7%

Please fill in: inhibition at 2 µM reported for CCCCCCCCC/C=C/CC/C=C/[C@@H](O)[C@H](CO[C@@H]1O[C@H](CO)[C@@H](O)[C@H](O)[C@H]1O)NC(=O)[C@H](O)/C=C/CCCCCCCCCCCC = 4.5%

Quick note, inhibition at 2 µM for CCCCCCCCCCCCC/C=C/[C@@H](O)C(=O)N[C@@H](CO[C@@H]1O[C@H](CO)[C@@H](O)[C@H](O)[C@H]1O)[C@H](O)/C=C/CC/C=C(\C)CCCCCCCCC landed at 130%

----------
Documented inhibition at 8 µM across a set of molecules
test system: spleen lymphocytes induced by Con A; assay: Detection of cell proliferation inhibition: Con A-induced spleen lymphocyte proliferation (CCK-8); assay type: cell-based; conditions: Mus musculus, concentration 8 μM, read-out: Inhibitory rate (%) on the proliferation of spleen lymphocytes induced by Con A
Give the value, in units of %, as a plain number.

Examples with answers:
Sure, the documented inhibition at 8 µM for CCCCCCCCC/C=C/CC/C=C/[C@@H](O)[C@H](CO[C@@H]1O[C@H](CO)[C@@H](O)[C@H](O)[C@H]1O)NC(=O)[C@H](O)/C=C/CCCCCCCCCCCC is 37.4

Data point: CCCCCCCCCCCCC/C=C/[C@@H](O)C(=O)N[C@@H](CO[C@@H]1O[C@H](CO)[C@@H](O)[C@H](O)[C@H]1O)[C@H](O)/C=C/CC/C=C(\C)CCCCCCCCC ; inhibition at 8 µM = 146

***
Per the record, CCCCCCCCCCCCCCCC(=O)N[C@@H](CO[C@@H]1O[C@H](CO)[C@@H](O)[C@H](O)[C@H]1O)[C@H](O)/C=C/CC/C=C(\C)CCCCCCCCC has inhibition at 8 µM of 100

Record summary for CCCCCCCCCCC/C=C/[C@@H](O)C(=O)N[C@@H](CO[C@@H]1O[C@H](CO)[C@@H](O)[C@H](O)[C@H]1O)[C@H](O)/C=C/CC/C=C(\C)CCCCCCCCC : reported inhibition at 8 µM = 77.7
